Measured chromatographic logP of individual entries
- Test Name: Measurement of Log P values by HPLC on reversed phase columns (EEC directive 79/831 Annex V.A8)
- Assay type: physicochemical
- Measurement Conditions: reversed phase HPLC column, method [a]: LC-UV, acidic range, 0.1% formic acid in water and acetonitrile as eluent

>  <Compound>
O=C(NCC(F)c1ccc(Cl)cc1Cl)c1c(Oc2cccc(C(F)F)c2)nnc2c1CCCC2 (stereo not drawn)

>  <chromatographic logP>
3.63

$$$$
>  <Compound>
Cc1ccc(C(F)(F)CNC(=O)c2c(Oc3cccc(C(F)(F)F)c3)nnc3ccccc23)c(C)c1

>  <chromatographic logP>
4.27

$$$$
>  <Compound>
O=C(N/C=C\c1ccccc1)c1c(Oc2cccc(C(F)(F)F)c2)cnc2ccccc12

>  <chromatographic logP>
4.17

$$$$
>  <Compound>
Cc1ccc(C(F)(F)CNC(=O)c2c(Oc3cccc(C(F)(F)F)c3)cnc3ccccc23)c(C)c1

>  <chromatographic logP>
4.46

$$$$
>  <Compound>
O=C(NCC(F)(F)c1ccc(Cl)cc1)c1c(Oc2cccc(C(F)(F)F)c2)cnc2ccccc12

>  <chromatographic logP>
4.23

$$$$
>  <Compound>
Cc1ccc(CCNC(=O)c2c(Oc3cccc(C(F)(F)F)c3)cnc3ccoc23)c(C)c1

>  <chromatographic logP>
4.04

$$$$
>  <Compound>
O=C(NCC(F)(F)c1ccc(Cl)cc1Cl)c1c(Oc2cccc(Cl)c2F)nnc2c1CCCC2

>  <chromatographic logP>
4.05

$$$$
>  <Compound>
O=C(NCC(F)c1ccc(Cl)cc1Cl)c1c(Oc2cccc(C(F)(F)F)c2)nnc2c1OCCO2 (racemic)

>  <chromatographic logP>
3.37

$$$$
>  <Compound>
Cc1ccc(C(F)CNC(=O)c2c(Oc3cccc(C(F)F)c3)nnc3c2CCCC3)c(C)c1 (stereo not drawn)

>  <chromatographic logP>
3.53

$$$$
>  <Compound>
O=C(N/C=C/c1ccccc1)c1c(Oc2cccc(C(F)(F)F)c2)cnc2ccccc12

>  <chromatographic logP>
3.92

$$$$
>  <Compound>
O=C(O)c1c(Oc2cccc(C(F)(F)F)c2)nnc2cc(F)ccc12

>  <chromatographic logP>
2.62

$$$$
>  <Compound>
O=C(NCC(F)(F)c1ccc(Br)cc1Cl)c1c(Oc2cccc(C(F)(F)F)c2)nnc2c1OCCO2

>  <chromatographic logP>
3.6

$$$$
>  <Compound>
Cc1ccc(C(F)(F)CNC(=O)c2c(Oc3cccc(C(F)(F)F)c3)nnc3c2CCCCC3)c(C)c1

>  <chromatographic logP>
4.28

$$$$
>  <Compound>
Cc1ccc(C(F)(F)CNC(=O)c2c(Oc3cccc(C4CC4)c3F)nnc3c2CCCC3)c(Cl)c1

>  <chromatographic logP>
4.17

$$$$
>  <Compound>
O=C(N[C@H]1CCCc2cc(Br)ccc21)c1c(Oc2cccc(C(F)(F)F)c2)cnc2c1OCCO2 (racemic)

>  <chromatographic logP>
4.03

$$$$
>  <Compound>
COc1cc(OC)nc(Oc2cnc3ccccc3c2C(=O)NCC(F)(F)c2ccc(C)cc2C)n1

>  <chromatographic logP>
3.74

$$$$
>  <Compound>
O=C(NC[C@H](F)c1ccc(Cl)c(Cl)c1)c1c(Oc2cccc(C(F)(F)F)c2)nnc2ccccc12 (racemic)

>  <chromatographic logP>
4.33

$$$$
>  <Compound>
C[C@H](NC(=O)c1c(Oc2cncc(C(F)(F)F)c2)nnc2ccccc12)c1cccc(C(F)(F)F)c1 (racemic)

>  <chromatographic logP>
3.57

$$$$
>  <Compound>
CC(=O)c1ccc(C(F)(F)CNC(=O)c2c(Oc3cccc(C(F)(F)F)c3)nnc3ccccc23)c(Cl)c1

>  <chromatographic logP>
3.84

$$$$
>  <Compound>
O=C(NCC(F)(F)c1ccc(Cl)cc1Cl)c1c(Oc2cccc(Cl)c2)nnc2c1CCCC2

>  <chromatographic logP>
4

$$$$
>  <Compound>
O=C(NCCc1ccc2c(c1)OCO2)c1c(Oc2cccc(C(F)(F)F)c2)nnc2ccccc12

>  <chromatographic logP>
3.45

$$$$
>  <Compound>
N#Cc1cccc(Oc2nnc3ccccc3c2C(=O)O)c1

>  <chromatographic logP>
1.56

$$$$
>  <Compound>
Cc1ccc(C(F)(F)CNC(=O)c2c(Oc3cccc(C4CC4)c3F)nnc3c2CCCC3)c(C)c1

>  <chromatographic logP>
4.23

$$$$
>  <Compound>
Cc1ccc(C(F)(F)CNC(=O)c2c(Br)cnc3nccnc23)c(C)c1

>  <chromatographic logP>
2.56

$$$$
>  <Compound>
O=C(NCC(F)(F)c1ccc(Cl)cc1)c1c(Oc2ccc(Cl)cc2)nnc2ccccc12

>  <chromatographic logP>
3.96

$$$$
>  <Compound>
Cc1ccc2c(c1)[C@@H](NC(=O)c1c(Oc3cccc(C(F)(F)F)c3)nnc3ccccc13)COC2 (racemic)

>  <chromatographic logP>
3.73

$$$$
>  <Compound>
Cc1cnn(CCNC(=O)c2c(Oc3cccc(C(F)(F)F)c3)nnc3ccccc23)c1

>  <chromatographic logP>
2.74

$$$$
>  <Compound>
O=C(NCC(F)(F)c1ccc(Br)cc1Cl)c1c(Oc2cccc(Cl)c2F)nnc2c1CCC2

>  <chromatographic logP>
4.05

$$$$
>  <Compound>
Cc1ccc(CCNC(=O)c2c(Oc3cccc(C4CC4)c3F)nnc3ccccc23)c(C)c1

>  <chromatographic logP>
4.42

$$$$
>  <Compound>
O=C(NCC(F)(F)c1ccc(Cl)cc1Cl)c1c(Oc2cccc(C3CC3)c2F)nnc2c1CCCC2

>  <chromatographic logP>
4.28

$$$$
>  <Compound>
O=C(NCCc1ccc2[nH]ccc2c1)c1c(Oc2cccc(C(F)(F)F)c2)nnc2ccccc12

>  <chromatographic logP>
3.3

$$$$
>  <Compound>
O=C(NC[C@H](F)c1ccc(Cl)cc1Cl)c1c(Oc2cccc(C(F)(F)F)c2)cnc2ccoc12 (racemic)

>  <chromatographic logP>
4.18

$$$$
>  <Compound>
Cc1ccc(C(F)(F)CNC(=O)c2c(Oc3cccc(Cl)c3F)nnc3c2CCCC3)c(C)c1

>  <chromatographic logP>
4

$$$$
